For each entry below, report its Response value.
# TEST_SYSTEM: T1, recombinant human CD3 epsilon/gamma heterodimer (human, UniProt P07766 23-126; P09693 23-116)
# T1 construct: Recombinant protein in solution (200-50 nM) in the Octet assay; also called hCD3 E/G
# T1 sequence (P07766 23-126, chain 1 of 2): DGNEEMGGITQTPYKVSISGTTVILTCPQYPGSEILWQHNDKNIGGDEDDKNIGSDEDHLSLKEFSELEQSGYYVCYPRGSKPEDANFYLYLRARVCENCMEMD
# T1 sequence (P09693 23-116, chain 2 of 2): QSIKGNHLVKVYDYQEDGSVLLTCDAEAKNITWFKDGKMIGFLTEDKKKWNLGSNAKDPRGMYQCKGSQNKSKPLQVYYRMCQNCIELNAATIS
# EXPERIMENT_NOTES: Octet BLI, mAb on FAB2G sensor, hCD3 E/G 200-50 nM; R^2 0.99

BINDER: ABL-CD3-41 (antibody, V domains shown, Chimeric hybridoma mAb: human V, CH1, upper hinge; mouse middle hinge, CH2, CH3) VH: EVQLVESGGGLVKPGGSLRLSCAASGFTFSSYSMNWVRQAPGKGLEWVSSVNSRGSYIYYADSVKGRFTISRDNAKDSLYLQMNSLRADDTAVYYCARDRRELLLDYWGQGTLVTVSS VL: SYELTQPPSVSVSPGQTARITCSGDALPKKYAYWYQQKSGQAPVLVIYEDSKRPSGIPERFSGSSSGTMATLTISGAQVEDEADYYCYSTDSSGNHCWVFGGGTKLTVL
RESULT_VALUE: 0.1
//
BINDER: ABL-CD3-54 (antibody, V domains shown, Chimeric hybridoma mAb: human V, CH1, upper hinge; mouse middle hinge, CH2, CH3) VH: EVQLVESGGGLVKPGGSLRLSCAASGFTFSSYSMNWVRQAPGKGLEWVSSISRSSRYIFYADSVRGRFTISRDNAKNSLYLQMNSLRAEDTAVYYCAREKRELLFDYWGQGTLVTVSS VL: NSMLTQPHSVSESPGKTVTISCTRSSGSIASYYVQWYQQRPGSSPTTVIYEDNQRPSGVPDRFSGSIDSSSNSASLTISGLKTEDEADYYCQSFDSSNRVFGGGTKLTVL
RESULT_VALUE: 0.87

Now consider the entry below.
Response for ABL-CD3-26 (antibody, V domains shown, Chimeric hybridoma mAb: human V, CH1, upper hinge; mouse middle hinge, CH2, CH3) VH: EVHLVESGGGLVKPGGSLRLSCAASGFTFSSYSMNWVRQAPGKGLEWVSSISSSSTYIYYADSVKGRFTISRDNAKNSLYLQMNSLRAEDTAVYYCAREPRTLGMDYWGQGILVTVSS VL: NFMLTQPHSVSESPGKTVTISCTRSSGSIASNYVQWYQQRPGSSPTTVIYEDNHRPSGVPDRFSGSIDSSSNSASLTISGLKTEDEADYFCQSFDSSNRVFGGGTKLTVL is 1.01
